Data provenance: patent US20030083484A1

System: mouse short heterodimer partner-1 mRNA
Assay: Inhibition of mouse short heterodimer partner-1 mRNA levels in primary hepatocytes, quantitative real-time PCR
Format: cell-based
Set-up: concentration or dose not given beside the values
Conditions: averages from two experiments
Strand notation (5' to 3'): a small letter for the sugar, then the base; units joined by * are phosphorothioate-linked, units joined directly phosphodiester-linked; [ ] holds rarer units or linkages, { } end groups; capitals alone tell only the bases. e = 2'-O-(2-methoxyethyl) (MOE); [5mC] = 5-methylcytosine; d = 2'-deoxy (DNA)
measured property: % INHIB (inhibition of mouse short heterodimer partner-1 mRNA levels) (%)
The reply should be a number in %, with the unit left off.

Looking for the measured % INHIB (inhibition of mouse short heterodimer partner-1 mRNA levels) of 148282 (antisense eT*eG*eA*eT*eG*dT*d[5mC]*dA*dA*d[5mC]*dG*dT*d[5mC]*dT*d[5mC]*e[5mC]*e[5mC]*eA*eT*eG) [compound 148282] , can you help?
22

Requested field: % INHIB (inhibition of mouse short heterodimer partner-1 mRNA levels). Item: 148265 (antisense eA*eG*eG*eT*eG*d[5mC]*dA*dA*d[5mC]*dG*dG*dG*d[5mC]*d[5mC]*dT*eG*eG*eT*e[5mC]*e[5mC]) [compound 148265]
41

Bench note: what % INHIB (inhibition of mouse short heterodimer partner-1 mRNA levels) did 148264 (antisense eG*e[5mC]*eA*eT*eA*d[5mC]*dA*dG*dA*dA*dT*dA*dG*dT*d[5mC]*eG*eG*eA*e[5mC]*eG) [compound 148264] show?
60

What % INHIB (inhibition of mouse short heterodimer partner-1 mRNA levels) value was documented for this substance, 148273 (antisense eT*eG*eG*e[5mC]*eT*dT*d[5mC]*d[5mC]*dT*d[5mC]*dT*dA*dG*d[5mC]*dA*eG*eG*eA*eT*e[5mC]) [compound 148273] ?
33

Look up % INHIB (inhibition of mouse short heterodimer partner-1 mRNA levels): 148267 (antisense e[5mC]*eA*e[5mC]*eA*eG*dA*d[5mC]*dG*d[5mC]*dA*d[5mC]*dA*dG*dG*d[5mC]*e[5mC]*eG*e[5mC]*eT*eG) [compound 148267]
28
